# Tested on: ACHN renal
# method-description: NCI tumour cell line growth inhibition, 48 h
measure: TGI

# molecule, value
data = [
    ("CCOC(=O)Oc1cc2ccsc2c2c1c1ccccc1n2C(=O)OCC", "98.1 µM"),
    ("N#C/C(=C\\c1ccc(O)c(O)c1)c1c(C#N)c(N)nn1-c1ccccc1", "26.9 µM"),
    ("CC(NC(=O)Cc1ccc(OP(=O)(OCc2ccc([N+](=O)[O-])o2)N(C)CCCCCl)cc1)c1ccc(OCC2CCCCC2)c(C(N)=O)c1 (stereo not given)", "37.1 µM"),
    ("COc1ccccc1C1C2=C(COC2=O)Oc2cc3c(cc21)OCO3 (stereo not given)", "> 100 µM"),
    ("Nc1nc(Cl)cc(NCC2(CO)CCCCC2)n1", "> 100 µM"),
]

* * *

The following compounds are shown together with reported TGI values.
# Tested on: COLO 205 colon
# method-description: NCI tumour cell line growth inhibition, 48 h

# compound, target-entity, TGI
measured = [
    ("CN(C(=O)[C@H](NC(=O)OCc1ccccc1)c1ccccc1)C1CCCCC1N1CCCC1 (some centres undefined)", "COLO 205 colon", "> 100 µM"),
    ("OC1(c2ccccc2)CC2CCC(C1)N2CCCC(O)(c1ccccc1)c1ccccc1 (centres undefined)", "COLO 205 colon", "30.8 µM"),
    ("CC(=O)OC1C[C@H]2C(OC(=O)c3ccccc3)C3C4(OC(C)=O)COC4C[C@H](OC(C)=O)[C@@]3(C)C(OC(C)=O)[C@H](OC(C)=O)C(=C1C)C2(C)C (some centres undefined)", "COLO 205 colon", "> 100 µM"),
    ("COc1ccccc1-n1cnc2c1NC(C)(C)N=C2C(N)=O", "COLO 205 colon", "> 100 µM"),
    ("Nc1cn(C2OC(CC(c3ccccc3)(c3ccccc3)c3ccccc3)C(O)C2O)c(=O)[nH]c1=O (centres undefined)", "COLO 205 colon", "30.3 µM"),
    ("CC(=O)Nc1ccc(-c2nnc(SCC(=O)Nc3cccc(C)c3)o2)cc1", "COLO 205 colon", "28 µM"),
    ("CCn1cnc(C[C@H](NC(=O)[C@H](CCCCNC(=O)Nc2cc(C(F)(F)F)cc(C(F)(F)F)c2)NC(=O)Nc2cc(C(F)(F)F)cc(C(F)(F)F)c2)C(=O)OC)c1", "COLO 205 colon", "> 10 µM"),
    ("C/C(=C1/N=C(c2cc([N+](=O)[O-])ccc2Cl)N(c2ccc(Br)cc2)C1=O)c1ccc(N(CCC#N)CCC#N)cc1C", "COLO 205 colon", "97 µM"),
    ("CCOC(=O)/C=C/n1c2ccccc2c(=O)c2cc(OC)ccc21", "COLO 205 colon", "> 100 µM"),
]

* * *

# Test system: CCRF-CEM leukemia
# method-description: NCI tumour cell line growth inhibition, 48 h; in the data active = GI50 below about 0.43 µM; inactive = the rest
Classes used: active, inactive

# compound, target-entity, group
measured = [
    ("Cc1c(C)c2c(c(C)c1OC(=O)CCC(=O)[O-])CCC(C)(CCCCCCCCCCC[P+](c1ccccc1)(c1ccccc1)c1ccccc1)O2 (stereo not given)", "CCRF-CEM leukemia", "active"),
    ("C[C@@H](Nc1nc(N[C@H](C)C(F)(F)F)nc(-c2cccc(Cl)n2)n1)C(F)(F)F", "CCRF-CEM leukemia", "inactive"),
    ("COc1ccccc1-n1cnc(N)c1C(=O)c1cc(OC)c(OC)c(OC)c1", "CCRF-CEM leukemia", "inactive"),
    ("CC1(C)OB(c2ccc(N(CCOS(C)(=O)=O)CCOS(C)(=O)=O)cc2)OC1(C)C", "CCRF-CEM leukemia", "inactive"),
    ("COc1ccc(-c2nn(-c3cccc(Cl)c3)cc2/C=C2\\NC(=S)N(c3ccc(Cl)cc3)C2=O)cc1", "CCRF-CEM leukemia", "inactive"),
    ("CN(C)c1ccc(/C=C/C(=O)c2ccc(Nc3nc(Nc4ccc(F)cc4)nc(Nc4ccc(F)cc4)n3)cc2)cc1", "CCRF-CEM leukemia", "inactive"),
    ("Nc1nc(N)c2c(n1)NC(c1sc(Cl)nc1Cl)CC(c1ccccc1)=N2 (stereo not given)", "CCRF-CEM leukemia", "inactive"),
    ("Cc1nnc(C[C@@H]2C=C(c3ccc(Cl)cc3)c3ccccc3-n3c(C)nnc32)o1", "CCRF-CEM leukemia", "inactive"),
    ("Nc1nc(=O)n(C2CC(O)C(CO)O2)cc1F (stereo not given)", "CCRF-CEM leukemia", "active"),
    ("O=C1c2c(O)cccc2C(C(=O)CCCCCC(=O)C2c3cccc(O)c3C(=O)c3c(O)cccc32)c2cccc(O)c21", "CCRF-CEM leukemia", "inactive"),
    ("C[C@H]1CCC/C=C/C2CC(OC(=O)CN(C)C)CC2C(OC(=O)CN(C)C)/C=C/C(=O)O1 (stereo not given in full)", "CCRF-CEM leukemia", "inactive"),
    ("O=C(COc1ccc(/C=C2\\Oc3ccc4ccccc4c3C2=O)cc1)c1ccc([N+](=O)[O-])cc1", "CCRF-CEM leukemia", "inactive"),
    ("C1=N[C@]23C(=N[C@H](N=C2NCc2ccco2)[C@]24N=CNC2=N[C@H]3N=C4NCc2ccco2)N1", "CCRF-CEM leukemia", "inactive"),
    ("Cc1cc(F)c(C(=O)Nc2cccc(-c3nncn3C(C)C)n2)cc1-n1cnc(C2CC2)c1", "CCRF-CEM leukemia", "inactive"),
    ("N#C/C(=C\\c1ccc(O)c(O)c1)C(=O)NCc1ccc(C(F)(F)F)cc1", "CCRF-CEM leukemia", "inactive"),
]
